Data origin, for the record: ChEMBL document CHEMBL4359907

# MIC values compiled below
tested on: Fusarium graminearum; experiment: Antifungal activity against Fusarium graminearum B4-5A incubated for 24 to 36 hrs by two fold dilution method; type: functional
endpoint_label: MIC (µg/mL)

• Cc1ccc(S(=O)(=O)OC[C@H]2O[C@H](O[C@@H]3[C@@H](O)[C@H](O[C@H]4O[C@H](CN)[C@@H](O)[C@H](O)[C@H]4O)[C@@H](N)C[C@H]3N)[C@H](O)[C@@H](N)[C@@H]2O)cc1.Cl.Cl.Cl.Cl = 128
• CCCCCCCCCCCCSC[C@H]1O[C@H](O[C@@H]2[C@@H](O)[C@H](O[C@H]3O[C@H](CN)[C@@H](O)[C@H](O)[C@H]3O)[C@@H](N)C[C@H]2N)[C@H](O)[C@@H](N)[C@@H]1O.Cl.Cl.Cl.Cl = 4
• CCCCCCCCCCCCCCNC[C@H]1O[C@H](O[C@@H]2[C@@H](O)[C@H](O[C@H]3O[C@H](CN)[C@@H](O)[C@H](O)[C@H]3O)[C@@H](N)C[C@H]2N)[C@H](O)[C@@H](N)[C@@H]1O.Cl.Cl.Cl.Cl.Cl = 2
• CCCCCCCCCCCCCCSC[C@H]1O[C@H](O[C@@H]2[C@@H](O)[C@H](O[C@H]3O[C@H](CN)[C@@H](O)[C@H](O)[C@H]3O)[C@@H](N)C[C@H]2N)[C@H](O)[C@@H](N)[C@@H]1O.Cl.Cl.Cl.Cl = 2
